# measurement description: Plasma concentrations of BVDU, BVU and GEM in patients of the dose finding study (HPLC)
# Assay type: in vivo, human
# applied conditions: human, plasma, po, dose level 9000 mg; 1.5 hr; day 1; oral BVDU; read-out: BVDU plasma concentration, Mean
parameter: concentration at 1.5 h (ng/mL)

{"compound": "O=c1[nH]c(=O)n([C@H]2C[C@H](O)[C@@H](CO)O2)cc1/C=C/Br [BVDU, (E)-5-(2-bromovinyl)-2′-deoxyuridine]", "measured": 697}

====

# measurement description: Plasma concentrations of BVDU, BVU and GEM in patients of the dose finding study (HPLC)
# Type: in vivo, human
# applied conditions: human, plasma, po, dose level 9000 mg; 4.0 hr; day 1; oral BVDU; read-out: BVDU plasma concentration, Median

{"molecule": "O=c1[nH]c(=O)n([C@H]2C[C@H](O)[C@@H](CO)O2)cc1/C=C/Br [BVDU, (E)-5-(2-bromovinyl)-2′-deoxyuridine]", "concentration at 4 h": "378 ng/mL"}
